assay overview: chemical genetic growth profiling, strain panel (AID 1159580);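 note: tested at 20 µM; growth read once vehicle control cultures reached saturation at 30 °C; 1 = growth at the plate median or of vehicle wells; lower values mean less growth of the strain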
reported conditions: S. cerevisiae deletion strains, growth OD, locus YBR136W, strain MEC1
About 2,000 (36%) of roughly 5,500 compounds were called active. About 18% were inconclusive and are not listed. Cut-off read from the data, not from the text of the source: active = normalized growth mostly below about 0.91 (no sharp cut-off); inconclusive = no clear call, values can overlap the other calls; inactive = mostly above about 0.92. The list shows a part of the results.
Labels: 1 = active, -1 = inactive

- compound: "O=[N+]([O-])c1cc(Br)cnc1Sc1nnc(SCC2CC2)s1"
  category: -1
- compound: "Cc1c(C)c(C)c(CSC(N)=Nc2ccc(F)cc2)c(C)c1C"
  category: -1
- compound: "O=C(NC(=O)c1c(F)cccc1Cl)OCc1ccc(Cl)cc1Cl"
  category: -1
- compound: "COc1ccc(C(=O)CSC2=NCCc3ccccc32)cc1"
  category: -1
- compound: "O=C(NCCSCc1cccc(C(F)(F)F)c1)c1ccc(Cl)cc1"
  category: -1
- compound: "Cc1cccc(Cl)c1/C=N\\NC(N)=S"
  category: 1
- compound: "Cn1c(CSCCOc2ccccc2)nnc1SCc1ccc(Cl)cc1Cl"
  category: -1
- compound: "CCOC(=O)C1=C(N)OC2=C(C(=O)CC(C)(C)C2)C1c1ccc(Cl)cc1Cl (centres undefined)"
  category: -1
- compound: "O=C(c1ccccc1)c1cc(Cl)ccc1NC(=S)Nc1ccc(F)cc1"
  category: -1
- compound: "Cc1nn(Cc2ccc(C(=O)Sc3ccc(C(F)(F)F)cn3)o2)c(C)c1Br"
  category: -1
- compound: "N#CCC(=O)NNC(=S)Nc1ccc(Cl)c(Cl)c1"
  category: -1
- compound: "CC(=O)c1sc(SCCS(=O)(=O)c2ccc(C)cc2)c2c1CC(C)(C)CC2=O"
  category: -1
- compound: "Fc1cccc(F)c1NC(=S)Nc1cc(C(F)(F)F)cc(C(F)(F)F)c1"
  category: -1
- compound: "FC(F)(F)c1cccc(NC(=S)Nc2ccccc2)c1"
  category: -1
- compound: "O=[N+]([O-])/C=C/c1ccsc1"
  category: 1
- compound: "FC(F)(F)c1cccc(NNC(=S)Nc2ccccc2)c1"
  category: -1
- compound: "O=C(NCCSCc1ccco1)Nc1cc(Cl)cc(Cl)c1"
  category: -1
- compound: "CC(C)c1ccc(NC(=S)NC(=O)c2ccccc2)cc1"
  category: -1
- compound: "C=CCOc1ccc(/C=C/[N+](=O)[O-])cc1"
  category: 1
- compound: "NC(=Nc1ccc(F)cc1)SCc1c(Cl)cccc1Cl"
  category: -1
- compound: "Cc1ccc(S(=O)(=O)CCSC2=CC(=O)CC(C)(C)S2)cc1"
  category: -1
- compound: "O=C(NC(=S)Nc1cccc(C(F)(F)F)c1)c1ccc2nonc2c1"
  category: -1
- compound: "N#CC(C#N)=C/C=C(/Sc1nc2ccccc2s1)c1ccc(Br)cc1"
  category: 1
- compound: "O=S(=O)(N/N=C\\c1ccc(Cl)cc1)c1ccc(-c2ccccn2)s1"
  category: -1
